assay: Quantitative highthroughput screen to assess conditional lethalithy of NOMO1 cells grown in RPMI1640 with dialyzed fetal bovine serum (RPMI+ds) (AID 1963877); settings: NOMO1 in RPMI+dialyzed FBS viability, ATP luminescence, 48 h; series mostly up to 45.8 µM; also: nearly all actives have a fitted effect of over 30% in size
Records with an inconclusive call do not appear. The source made the active and inactive calls. Calls follow the shape of the dose curve; as a rule, active = well fitted cell-killing curve with a large enough effect; inconclusive = small, poorly fitted or top-dose-only effect; inactive = flat fitted curve, though single readings scatter.
Output constraint: value belongs to TRUE = active, FALSE = inactive

[[record]]
compound = "CC(C)(O)CC[C@@H](O)[C@](C)(O)[C@H]1CC[C@@]2(O)C3=CC(=O)[C@@H]4C[C@@H](O)[C@@H](O)C[C@]4(C)[C@@H]3CC[C@]12C"
classlabel = "FALSE"

[[record]]
compound = "O=C(NC(Cc1cc(=O)[nH]c2ccccc12)C(=O)O)c1ccc(Cl)cc1 (stereo not given)"
classlabel = "FALSE"

[[record]]
compound = "Nc1ncnc2c1ncn2[C@@H]1O[C@H](CO)[C@@H](O)[C@@H]1O"
classlabel = "TRUE"


Prompt: Query: recorded result category for CCC(C)N(C)C(=O)c1cc2ccccc2c(-c2ccccc2Cl)n1 (stereo not given) in this test
Response: FALSE

Prompt: Query: recorded result category for CCc1ccc(C(=O)Nc2cc(CN3CCN(C)CC3)cc(C(F)(F)F)c2)cc1C#Cc1cnc2ccnn2c1 in this test
Response: FALSE

Prompt: Query: recorded result category for OC[C@@H](O)[C@@H](O)[C@H](O)[C@@H](O)CO in this test
Response: FALSE

Prompt: Query: recorded result category for Cc1cnc(-c2cc(N3CCN(C(=O)CCS(C)(=O)=O)CC3)ncc2Cl)c(C)c1 in this test
Response: FALSE

Prompt: Query: recorded result category for CCCCCCNC(=O)n1cc(F)c(=O)[nH]c1=O in this test
Response: TRUE

Prompt: Query: recorded result category for Nc1[nH]c(=O)ncc1F in this test
Response: FALSE

Prompt: Query: recorded result category for COc1cc(OC)c(C(=O)CCCN2CCCC2)c(OC)c1 in this test
Response: FALSE

Prompt: Query: recorded result category for O=P(O)(O)C(O)(Cn1ccnc1)P(=O)(O)O in this test
Response: FALSE

Prompt: Query: recorded result category for CC(=O)N[C@H]1[C@@H]([C@H](O)[C@H](O)CO)OC(C(=O)O)=C[C@@H]1N=C(N)N in this test
Response: FALSE

Prompt: Query: recorded result category for c1ccc2c(Oc3nc(Nc4ccc(N5CCOCC5)cc4)c4ncn(C5CCCCC5)c4n3)cccc2c1 in this test
Response: FALSE

Prompt: Query: recorded result category for Cc1cnc(Nc2cccc(CN3CCOCC3)c2)nc1Nc1cccc(S(=O)(=O)NC(C)(C)C)c1 in this test
Response: FALSE

Prompt: Query: recorded result category for Cc1ncc([N+](=O)[O-])n1CC(C)O (stereo not given) in this test
Response: FALSE
